# Target or test system: T1, human glycophorin A on human red blood cells or red blood cell membranes (human, UniProt P02724 20-150)
# T1 construct: whole, on cells; also called hRBC; human RBC membranes
# T1 sequence (looked up): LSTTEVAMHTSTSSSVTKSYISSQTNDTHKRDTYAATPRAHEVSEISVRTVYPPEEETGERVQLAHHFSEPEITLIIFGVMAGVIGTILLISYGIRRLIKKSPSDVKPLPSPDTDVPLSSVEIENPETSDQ
# Assay explanation: scFv on intact human RBC, unbound scFv by ELISA; 120 min after 200-fold dilution
Readout type: percentage of input scFv antibody bound (%)
Give bare numbers, in %.

>  <Binder>
TPP-7783 scFv with C-terminal 6xHIS tag (scFv) scFv: DIQLTQSPSFLSASVGDRVTITCRASSSVRYIYWFQQKPGKAPKLLIYATSFRRSGVPSRFSGSGSGTEYTLTISSLQPEDFATYYCHQRNSFPYTFGQGTKLEIKGGGGSGGGGSGGGGSGGGGSEVQLVQSGAEVKKPGASVKVSCKASGYTFTTYAIHWVRQAPGQGLEWMGYINPSSGYTRYNPKFKHRVTMTRDKSTSTAYMELRSLRSDDTAVYYCWTGTRDYWGQGTTVTVSSHHHHHH

>  <Display unit>
%

>  <percentage of input scFv antibody bound>
94

$$$$

Which percentage of input scFv antibody bound value belongs to TPP-7792 scFv with C-terminal 6xHIS tag (scFv) scFv: DIQLTQSPSFLSASVGDRVTITCRASSSVRYIYWFQQKPGKAPKLLIYATSFRQSGVPSRFSGSGSGTEYTLTISSLQPEDFATYYCHQRNSFPYTFGQGTKLEIKGGGGSGGGGSGGGGSGGGGSEVQLVQSGAEVKKPGASVKVSCKASGYTFTTYAIHWVRQAPGQGLEWMGYINPSSGYTRYNPKFKGRVTMTRDKSTSTAYMELRSLRSDDTAVYYCWTGTRDYWGQGTTVTVSSHHHHHH ?
92

This collection of values is drawn from patent US20190359687A1.
